# Tested on: STING activation (IFNβ release) in iBMDMs
# Procedure summary: IFNβ release ELISA after STING ligand (or LPS) stimulation, iBMDMs
# Format: cell-based, mouse
# Recorded conditions: iBMDMs; 3′3′-cGAMP 10 μg/ml, 16 hours; compound 10 μM
Counter-ions that a name gives are not always drawn.
Please respond with reported fold increase in IFN-β release for every item in the list.
Write the answer as a number in fold, unit excluded.

Hello, please tell me recorded fold increase in IFN-β release for this one: Nc1ncnc2c1c(-c1cccc(OCc3ccccc3)c1)cn2C1CC(CN2CCCC2)C1 (stereo not shown)
0.61

Hello, please tell me recorded fold increase in IFN-β release for this one: Cc1c(-c2ccc(O)cc2)n(Cc2ccc(OCCN3CCCCCC3)cc2)c2ccc(O)cc12 [Bazedoxifene HCl]
0.15

Hello, please tell me recorded fold increase in IFN-β release for this one: Cc1c(-c2ccnn2C)cc(C(=O)NCc2ccc(S(C)(=O)=O)cn2)c(=O)n1-c1cccc(C(F)(F)F)c1
0.27

Hello, please tell me recorded fold increase in IFN-β release for this one: CS(=O)(=O)c1cccc(CNc2nc(Nc3ccc4c(c3)CCC(=O)N4)ncc2C(F)(F)F)c1
0.87

---

Please respond with reported fold increase in IFN-β release for every item in the list.
# Test system: STING activation (IFNβ release) in iBMDMs
# Procedure summary: IFNβ release ELISA after STING ligand (or LPS) stimulation, iBMDMs
# Assay type: cell-based, mouse
# Recorded conditions: iBMDMs; 3′3′-cGAMP 10 μg/ml, 16 hours; compound 10 μM
Write the answer as a number in fold, unit excluded.

Hello, please tell me recorded fold increase in IFN-β release for this one: C[S+]([O-])c1ccc(-c2nc(-c3ccc(F)cc3)c(-c3ccncc3)[nH]2)cc1 (centres unmarked)
0.35

Hello, please tell me recorded fold increase in IFN-β release for this one: CCOC(=O)c1ccc(NC2CCCCC2)c(N)c1
2.54

Hello, please tell me recorded fold increase in IFN-β release for this one: Cl.NCc1c[nH]c(=S)n1[C@@H]1CCc2c(F)cc(F)cc2C1 [(R)-Nepicastat HCl]
2.13

Hello, please tell me recorded fold increase in IFN-β release for this one: COc1cc(OC2CCN(C)CC2)ccc1Nc1ncc2c(n1)n(C1CCCC1)c(=O)n2C
0.10

Hello, please tell me recorded fold increase in IFN-β release for this one: CNC(=C[N+](=O)[O-])NCCSCc1ccc(CN(C)C)o1
2.87

Hello, please tell me recorded fold increase in IFN-β release for this one: CC(C)NC[C@@H](C(=O)N1CCN(c2ncnc3c2[C@H](C)C[C@H]3O)CC1)c1ccc(Cl)cc1
0.86

Hello, please tell me recorded fold increase in IFN-β release for this one: CCOc1ccc(Cc2cc([C@@H]3O[C@H](CO)[C@@H](O)[C@H](O)[C@H]3O)ccc2Cl)cc1
1.57

Hello, please tell me recorded fold increase in IFN-β release for this one: Cc1[nH]c2ccccc2c1CCNCc1ccc(/C=C/C(=O)NO)cc1
0.61

Hello, please tell me recorded fold increase in IFN-β release for this one: CC(C)c1ccc(NC(=O)Cn2cnc3c2c(=O)n(C)c(=O)n3C)cc1
1.05

Hello, please tell me recorded fold increase in IFN-β release for this one: COc1cc2c(cc1-c1c(C)noc1C)ncc1[nH]c(=O)n([C@H](C)c3ccccn3)c12 [I-BET151 (GSK1210151A)]
0.40

Hello, please tell me recorded fold increase in IFN-β release for this one: O=C(Nc1cccc(C(F)(F)F)c1)Nc1cc(S(=O)(=O)NC2CC2)ccc1-c1ccsc1
2.14

Hello, please tell me recorded fold increase in IFN-β release for this one: CCOC(=O)C1=C(N)Oc2ccc(Br)cc2C1C(C#N)C(=O)OCC (centres unmarked)
0.45

Hello, please tell me recorded fold increase in IFN-β release for this one: CCCC(C)NC(=O)c1ccc(Cl)c(Cl)c1 (centres unmarked)
1.24

Hello, please tell me recorded fold increase in IFN-β release for this one: CNC(=O)c1ccc2cc([C@@]3(O)CCn4cncc43)ccc2c1
2.72

Hello, please tell me recorded fold increase in IFN-β release for this one: Cc1ccc(S(=O)(=O)c2ccc([N+](=O)[O-])o2)cc1
0.51

Hello, please tell me recorded fold increase in IFN-β release for this one: O=C(/C=C/c1ccccc1)NC(NC(=S)Nc1ccc(Cl)cc1)C(Cl)(Cl)Cl (centres unmarked)
0.18

Hello, please tell me recorded fold increase in IFN-β release for this one: CCN(c1cc(-c2ccc(CN3CCOCC3)cc2)cc(C(=O)NCc2c(C)cc(C)[nH]c2=O)c1C)C1CCOCC1
1.03
